B1: LINE1-mini (parent)
chain: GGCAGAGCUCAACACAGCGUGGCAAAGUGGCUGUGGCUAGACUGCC

Variants of: B1
EXPERIMENTAL_PROTOCOL: self-cleavage, relative activity (ratio to wild type); higher = more cleavage; in vitro, sequencing; the parent is a self-cleaving ribozyme
So basically: self-cleavage at 0.09 or higher? That is Y. Lower than 0.09? That is N.

Task: Decide: self-cleavage of GGCUGAGCUCAACACAGCGUGGCAAAGUGGCUGUGGCUAGACUGCC [A4U] >= 0.09?
Result: Y

Task: Decide: self-cleavage of GGCAGAGCUCAACACAGCGUGGCAAAGGGGCUGUGGCUAGUCUGCC [U28G A41U] >= 0.09?
Result: Y

Task: Decide: self-cleavage of GGCAGAGCUCAACUCAGCGUGGCAAAGUGGCUGUAGCUAGACUGCC [A14U G35A] >= 0.09?
Result: Y

Task: Decide: self-cleavage of GGCAGAGCUCAACACAGCAUGGCAAAGUGGCUGUGGCUAGAGUGCC [G19A C42G] >= 0.09?
Result: N

Task: Decide: self-cleavage of GGCAGAGCUGAACACGGCGUGGCAAAGUGGCUGUGGCUAGACUGCC [C10G A16G] >= 0.09?
Result: N

Task: Decide: self-cleavage of GGCAGAGCUCAACACAGCGUGGCAAUGUGGCUGUGGCUAGACCGCC [A26U U43C] >= 0.09?
Result: Y

Task: Decide: self-cleavage of GGCAGAGCUCAACACAGCGUGACAAAGUGGCGGUGGCUAGACUGCC [G22A U32G] >= 0.09?
Result: Y

Task: Decide: self-cleavage of UGCAGAGCUCAACACAGCGUGGCAAAGUGGCUGUCGCUAGACUGCC [G1U G35C] >= 0.09?
Result: N

Task: Decide: self-cleavage of GGCAGAGGUCAACACAGCGUGGCAAAGUGGCUGUGGCUGGACUGCC [C8G A39G] >= 0.09?
Result: N

Task: Decide: self-cleavage of GGCAGAGCUCAACACAGCCUGGCAAAGGGGCUGUGGCUAGACUGCC [G19C U28G] >= 0.09?
Result: Y

Task: Decide: self-cleavage of GGCAGAGCUCAACACAUCGUGGCAAAGUGGCUGUGGGUAGACUGCC [G17U C37G] >= 0.09?
Result: N

Task: Decide: self-cleavage of GGCAGAGUUCAACACAGCGUGGCAAAGUGGCUGUGGCUAGGCUGCC [C8U A41G] >= 0.09?
Result: Y

Task: Decide: self-cleavage of GGCAGAGCACAACACAGCGCGGCAAAGUGGCUGUGGCUAGACUGCC [U9A U20C] >= 0.09?
Result: Y

Task: Decide: self-cleavage of GGCAGAGCUCAACACAUCGUGGCAAAGUGGCUGUGGCUAGACUGCA [G17U C46A] >= 0.09?
Result: Y

Task: Decide: self-cleavage of GGCAGAGCUCAACACAGCGUGGCAAAGUGGCUGUGGGUAAACUGCC [C37G G40A] >= 0.09?
Result: N

Task: Decide: self-cleavage of GGCAGAGCUCAACACAGCGUGGCAAAAUGGCUGUGGCUAGACUGGC [G27A C45G] >= 0.09?
Result: Y

Task: Decide: self-cleavage of GGCAGAGCUCAACACAGCAUGGCAAAGUGGCUGUCGCUAGACUGCC [G19A G35C] >= 0.09?
Result: Y

Task: Decide: self-cleavage of GGCAGAGCUCAACACAGCGUGGCAAAGUGGAUGUGGCUAGACUGCG [C31A C46G] >= 0.09?
Result: Y

Task: Decide: self-cleavage of GGCAGAGCUCAACACAGCGGGGCAAAGUGGCUUUGGCUAGACUGCC [U20G G33U] >= 0.09?
Result: N

Task: Decide: self-cleavage of GGCAGAGCUCAACACAGAGUGGCAAAGUGGCUGUGGCUGGACUGCC [C18A A39G] >= 0.09?
Result: N

Task: Decide: self-cleavage of GGCAGAGCUCAACACAGCGUCGCAAAGUGGCUGUGGCUAGACUGCA [G21C C46A] >= 0.09?
Result: Y

Task: Decide: self-cleavage of GGCAAAGCUCAACACAGCGUGGCAAAGUGGCUGUGGCUAGACCGCC [G5A U43C] >= 0.09?
Result: N

Task: Decide: self-cleavage of GGCAGAGCUCAACACAGCGGGGCAAAGUGGCUCUGGCUAGACUGCC [U20G G33C] >= 0.09?
Result: N

Task: Decide: self-cleavage of GGCAGAGCUCAACACAGCGUGGUAAAGUGGCGGUGGCUAGACUGCC [C23U U32G] >= 0.09?
Result: Y

Task: Decide: self-cleavage of GGCAGAGCUCAACGCAGCGUGGAAAAGUGGCUGUGGCUAGACUGCC [A14G C23A] >= 0.09?
Result: Y

Task: Decide: self-cleavage of GGCAGAGCUCAACACAGCGUGGCAAAGAGGCUGUGGCAAGACUGCC [U28A U38A] >= 0.09?
Result: Y

Task: Decide: self-cleavage of GGCAGAGCUCAACACAGCGUGGCAACGAGGCUGUGGCUAGACUGCC [A26C U28A] >= 0.09?
Result: Y

Task: Decide: self-cleavage of GUCAGAGCUCAAUACAGCGUGGCAAAGUGGCUGUGGCUAGACUGCC [G2U C13U] >= 0.09?
Result: N

Task: Decide: self-cleavage of GGCAGAGCUCAACUCAGCGUGGCAAAGUGGCUGUGGCUCGACUGCC [A14U A39C] >= 0.09?
Result: Y

Task: Decide: self-cleavage of GGCAGAGCUCAACACAGCGUGGCAAACUGGCUGAGGCUAGACUGCC [G27C U34A] >= 0.09?
Result: Y

Task: Decide: self-cleavage of CGCAGAGCUCAACACAGCGUGGCAAAGUGGCCGUGGCUAGACUGCC [G1C U32C] >= 0.09?
Result: N

Task: Decide: self-cleavage of GGCAGAGCUCAACACAGCGUGACAAAGUGGCUGUGGAUAGACUGCC [G22A C37A] >= 0.09?
Result: N

Task: Decide: self-cleavage of GGCAGAGCUCAACACAACGUGGCAAAGUGGCUGUGGCGAGACUGCC [G17A U38G] >= 0.09?
Result: N

Task: Decide: self-cleavage of GGCAGAGCGCAACACAGCGCGGCAAAGUGGCUGUGGCUAGACUGCC [U9G U20C] >= 0.09?
Result: N

Task: Decide: self-cleavage of GGCAGAGGUCAACACAGCGUGCCAAAGUGGCUGUGGCUAGACUGCC [C8G G22C] >= 0.09?
Result: N

Task: Decide: self-cleavage of GGCAGAGCUCAAAACAGCGUGGCAAAGUGGCUGUUGCUAGACUGCC [C13A G35U] >= 0.09?
Result: Y

Task: Decide: self-cleavage of GGCAGAGCUCAACACAGCGUGGCAAAGUGGCUAUCGCUAGACUGCC [G33A G35C] >= 0.09?
Result: N

Task: Decide: self-cleavage of GGCAAAGCUCAACACAGCGUGGCAAACUGGCUGUGGCUAGACUGCC [G5A G27C] >= 0.09?
Result: N

Task: Decide: self-cleavage of GGCAGUGCUCAACACAGCGUGGCGAAGUGGCUGUGGCUAGACUGCC [A6U A24G] >= 0.09?
Result: Y

Task: Decide: self-cleavage of GGCAGAGCUCAAGACAGCGUGGCAAAGUGGCUGUGGCUAGAUUGCC [C13G C42U] >= 0.09?
Result: Y

Task: Decide: self-cleavage of GGCAGAGCUCAACACAGCGUGGCACAGUGGCUGUGGCCAGACUGCC [A25C U38C] >= 0.09?
Result: Y

Task: Decide: self-cleavage of GGCAGAGCUCAACACAGCGUGUCACAGUGGCUGUGGCUAGACUGCC [G22U A25C] >= 0.09?
Result: Y

Task: Decide: self-cleavage of AGCAGAGCUCAACACAGCGUGGCAAAGUGGCUGUGGCAAGACUGCC [G1A U38A] >= 0.09?
Result: Y
